Reference for the values: ChEMBL document CHEMBL4610095

# assay-info: Cytotoxicity against mouse RAW264.7 cells assessed as cell viability at 100 ug/ml by MTT assay
# Type: cell-based
# applied-conditions: read-out: Activity
readout: viability at 100 ug/ml

compound	viability at 100 ug/ml
C/C=C(\CO)C(=O)O[C@@H]1[C@@H](O)[C@H](OC(=O)/C(=C/C)CO)[C@H](OC(=O)C(C)CC)[C@@H](O)[C@H]1OC(=O)C(C)CC (stereo partly drawn)	> 85%
C/C=C(\C)C(=O)O[C@@H]1[C@@H](O)[C@@H](OC(=O)C(C)CC)[C@H](OC(=O)/C(=C/C)CO)[C@@H](OC(=O)/C(=C/C)CO)[C@@H]1O (stereo partly drawn)	> 85%

Could you now look at the following compound, please?
The recorded viability at 100 ug/ml for C/C=C(\C)C(=O)O[C@@H]1[C@H](O)[C@@H](OC(=O)C(C)CC)[C@@H](OC(=O)/C(=C/C)CO)[C@H](O)[C@H]1OC(=O)/C(=C/C)CO (stereo partly drawn) is > 85%
